Consider the following GI50 values measured on Renal.
measuredMetric: GI50 (µM)

{"compound": "COc1ccc(C(=O)/C=C/c2cc(-c3cc(OC)c(OC)c(OC)c3)n[nH]2)cc1OC", "targetOrSystem": "Renal", "endpointResult": 1.51}
{"compound": "COc1cc(C(=O)/C=C/c2cc(-c3cc(OC)c(OC)c(OC)c3)n[nH]2)cc(OC)c1OC [10e]", "targetOrSystem": "Renal", "endpointResult": 1.58}
{"compound": "COc1cc(-c2cc(/C=C/C(=O)c3ccc(Cl)c(Cl)c3)[nH]n2)cc(OC)c1OC [12e]", "targetOrSystem": "Renal", "endpointResult": 8.91}
{"compound": "COc1ccc(C(=O)/C=C/c2cc(-c3cc(OC)c(OC)c(OC)c3)n[nH]2)cc1", "targetOrSystem": "Renal", "endpointResult": 1.82}

---

Test system: SW-620
// NB: equality with 2000 nM counts as false; only GI50 strictly below is true

{"molecule": "COc1cc(C(=O)/C=C/c2cc(-c3cc(OC)c(OC)c(OC)c3)n[nH]2)cc(OC)c1OC [10e]", "group": "true"}
{"molecule": "COc1ccc(C(=O)/C=C/c2cc(-c3cc(OC)c(OC)c(OC)c3)n[nH]2)cc1OC", "group": "true"}
{"molecule": "COc1cc(-c2cc(/C=C/C(=O)c3ccc(Cl)c(Cl)c3)[nH]n2)cc(OC)c1OC [12e]", "group": "false"}
{"molecule": "COc1cc(-c2cc(/C=C/C(=O)c3ccc4c(c3)OCO4)[nH]n2)cc(OC)c1OC [11e]", "group": "false"}
{"molecule": "COc1ccc(C(=O)/C=C/c2cc(-c3cc(OC)c(OC)c(OC)c3)n[nH]2)cc1", "group": "true"}
{"molecule": "COc1cc(-c2cc(/C=C/C(=O)c3ccc(F)c(F)c3)[nH]n2)cc(OC)c1OC [13e]", "group": "false"}

---

Test system: SF-268
Yes if GI50 is below 3000 nM. No if not; exact matches included in No.

{"compound": "COc1cc(-c2cc(/C=C/C(=O)c3ccc(F)c(F)c3)[nH]n2)cc(OC)c1OC [13e]", "group": "No"}
{"compound": "COc1ccc(C(=O)/C=C/c2cc(-c3cc(OC)c(OC)c(OC)c3)n[nH]2)cc1", "group": "Yes"}
{"compound": "COc1cc(-c2cc(/C=C/C(=O)c3ccc(Cl)c(Cl)c3)[nH]n2)cc(OC)c1OC [12e]", "group": "No"}
{"compound": "COc1ccc(C(=O)/C=C/c2cc(-c3ccc4c(c3)OCO4)n[nH]2)cc1OC", "group": "Yes"}
{"compound": "COc1ccc(C(=O)/C=C/c2cc(-c3cc(OC)c(OC)c(OC)c3)n[nH]2)cc1OC", "group": "Yes"}
{"compound": "COc1cc(C(=O)/C=C/c2cc(-c3cc(OC)c(OC)c(OC)c3)n[nH]2)cc(OC)c1OC [10e]", "group": "Yes"}

---

System: MOLT-4
The entries below are paired with their reported GI50.

{"molecule": "COc1ccc(C(=O)/C=C/c2cc(-c3cc(OC)c(OC)c(OC)c3)n[nH]2)cc1", "targetOrSystem": "MOLT-4", "GI50": "2670 nM"}
{"molecule": "COc1ccc(C(=O)/C=C/c2cc(-c3cc(OC)c(OC)c(OC)c3)n[nH]2)cc1OC", "targetOrSystem": "MOLT-4", "GI50": "2110 nM"}
{"molecule": "COc1cc(-c2cc(/C=C/C(=O)c3ccc(F)c(F)c3)[nH]n2)cc(OC)c1OC [13e]", "targetOrSystem": "MOLT-4", "GI50": "2720 nM"}
{"molecule": "COc1cc(-c2cc(/C=C/C(=O)c3ccc(Cl)c(Cl)c3)[nH]n2)cc(OC)c1OC [12e]", "targetOrSystem": "MOLT-4", "GI50": "4380 nM"}
{"molecule": "COc1ccc(C(=O)/C=C/c2cc(-c3ccc4c(c3)OCO4)n[nH]2)cc1OC", "targetOrSystem": "MOLT-4", "GI50": "3000 nM"}
{"molecule": "COc1cc(-c2cc(/C=C/C(=O)c3ccc4c(c3)OCO4)[nH]n2)cc(OC)c1OC [11e]", "targetOrSystem": "MOLT-4", "GI50": "2980 nM"}
{"molecule": "COc1cc(C(=O)/C=C/c2cc(-c3cc(OC)c(OC)c(OC)c3)n[nH]2)cc(OC)c1OC [10e]", "targetOrSystem": "MOLT-4", "GI50": "2320 nM"}
